targetUnderTest: VvALMT9 (Vitis vinifera, UniProt F6GTK1)
Construct: full-length, untagged as told; cRNA from pGEMHE-DEST in Xenopus laevis oocytes
Sequence (F6GTK1 1-588): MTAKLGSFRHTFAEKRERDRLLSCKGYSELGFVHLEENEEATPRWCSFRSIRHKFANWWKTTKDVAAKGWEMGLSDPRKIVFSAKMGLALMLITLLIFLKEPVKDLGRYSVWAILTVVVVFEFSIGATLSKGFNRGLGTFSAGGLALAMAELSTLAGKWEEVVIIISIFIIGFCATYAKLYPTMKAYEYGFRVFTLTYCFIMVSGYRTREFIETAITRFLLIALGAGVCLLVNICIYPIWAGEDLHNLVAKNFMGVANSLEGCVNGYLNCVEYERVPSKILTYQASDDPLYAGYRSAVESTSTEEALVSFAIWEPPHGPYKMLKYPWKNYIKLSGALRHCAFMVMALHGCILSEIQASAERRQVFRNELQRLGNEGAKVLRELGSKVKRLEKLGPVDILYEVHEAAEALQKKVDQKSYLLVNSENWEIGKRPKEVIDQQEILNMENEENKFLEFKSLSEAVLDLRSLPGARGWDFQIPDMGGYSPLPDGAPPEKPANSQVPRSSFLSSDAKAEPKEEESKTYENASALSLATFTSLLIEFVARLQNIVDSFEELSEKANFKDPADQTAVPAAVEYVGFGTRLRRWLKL
assayProcedure: two-electrode voltage clamp, X. laevis oocytes
settings: read-out: half-maximal effective concentration
attributeMeasured: EC50

Per the record, NCCCC(=O)O [GABA] has EC50 of 5 µM

====

targetUnderTest: VvALMT9 (Vitis vinifera, UniProt F6GTK1, Y237C)
Construct: full-length, untagged as told; cRNA from pGEMHE-DEST in Xenopus laevis oocytes
Sequence (F6GTK1 entry or part of it Y237C): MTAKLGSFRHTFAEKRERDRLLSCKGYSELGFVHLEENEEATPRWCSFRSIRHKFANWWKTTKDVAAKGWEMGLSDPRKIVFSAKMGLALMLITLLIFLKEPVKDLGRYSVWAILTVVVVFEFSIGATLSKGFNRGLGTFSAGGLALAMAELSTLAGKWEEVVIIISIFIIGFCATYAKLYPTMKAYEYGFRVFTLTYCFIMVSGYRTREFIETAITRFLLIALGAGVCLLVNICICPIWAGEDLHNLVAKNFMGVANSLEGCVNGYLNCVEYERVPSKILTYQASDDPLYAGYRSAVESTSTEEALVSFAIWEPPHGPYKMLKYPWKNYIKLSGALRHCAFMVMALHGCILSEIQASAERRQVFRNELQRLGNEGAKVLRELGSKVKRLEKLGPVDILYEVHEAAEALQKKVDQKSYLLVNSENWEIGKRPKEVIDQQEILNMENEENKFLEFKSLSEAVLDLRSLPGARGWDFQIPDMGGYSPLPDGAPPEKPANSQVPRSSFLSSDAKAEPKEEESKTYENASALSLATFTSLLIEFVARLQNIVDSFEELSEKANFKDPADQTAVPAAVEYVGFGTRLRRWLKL
assayProcedure: two-electrode voltage clamp, X. laevis oocytes
settings: read-out: half-maximal effective concentration
attributeMeasured: pEC50
Reminder that pEC50 is minus the log10 of a molar concentration.

The value of pEC50 measured for the molecule NCCCC(=O)O turned out to be 3.16
